Taken from PubChem BioAssay (NCI).

Attribute: TGI
Test system: IGROV1 ovarian
protocolDetails: NCI tumour cell line growth inhibition, 48 h
Dear colleague, please return just the value in µM, with no unit written.

O=C1CS(=O)(=O)C(c2cccc(Oc3ccccc3)c2)N1c1cccc(Cl)c1 (stereo not given)    69.9

Moving on to the next compound.
Ask: State its TGI: CN(c1cc2ncc(=O)[nH]c2cc1NC(N)=NCc1ccc(Cl)cc1)C1CCCCC1
Result: 15

* * *

Tested on: HCT-116 colon
protocolDetails: NCI tumour cell line growth inhibition, 48 h
Quick reference: GI50 of the listed items.

Sample answers from the record:
CCCCOc1ccc(NC(=O)n2nc(N)c3ccccc32)cc1    19.3 µM
Fc1ccc(-c2nn3c(-c4ccc(F)c(Cl)c4)nnc3s2)cc1    21.6 µM
CCCc1cc(O)c2c3c(c(=O)oc2c1)CN(C)CC3    66.8 µM
Cn1cc(C2=C(c3cccc(N)c3)C(=O)NC2=O)c2ccccc21    7.94 µM

Kindly consider the entry below.
Ask: Determine from records and report GI50 for CCOc1ccccc1NC(=O)c1cc2ccccc2cc1O
Result: 2.88 µM

* * *

Tested on: HL-60(TB) leukemia
protocolDetails: NCI tumour cell line growth inhibition, 48 h
property: GI50

Reference set, count: 6
COc1cc(C(=O)N2N=C(c3ccc(S(C)(=O)=O)cc3)CC2c2ccco2)cc(OC)c1OC (centres undefined)    1.41 µM
CC(C)Nc1ccc(Nc2ccccc2)cc1    17.7 µM
N#Cc1cccc(OCc2nc(N)nc(N)c2-c2ccc(Cl)c(Cl)c2)c1    1.55 µM
Nc1ncnc2c1ncn2Cc1ccc(C23CC4CC(CC(C4)C2)C3)c(OCc2cc(F)c(F)cc2F)c1    3.06 µM
Cc1ccc(NC(=O)Cc2ccc(/C=C/C(=O)c3ncc[nH]3)cc2)cc1    5.88 µM
COc1cc(-c2nc3sccn3c2-c2ccnc(NCCNS(=O)(=O)c3ccc(Cl)cc3)n2)ccc1F    3.74 µM

Ask: Find the measured GI50 of CC(=O)Nc1ccc(/C=C/C(=O)c2ccccc2)cc1 with HL-60(TB) leukemia as test system.
Result: 24.8 µM

Ask: Param request: GI50 | system HL-60(TB) leukemia | item COC(=O)C1=C(C)NC(C)=C(C(=O)OC)C1/C=C(\Cl)c1ccc(Cl)c(Cl)c1
Result: 11.9 µM

Ask: Give GI50; test system HL-60(TB) leukemia; molecule CC(=O)N1N=C(c2ccc(Nc3nc(Nc4ccc(Cl)cc4)nc(Nc4ccc(Cl)cc4)n3)cc2)CC1c1ccc([N+](=O)[O-])cc1 (centres undefined)
Result: 6.15 µM

* * *

Test system: HOP-92 NSCLC
protocolDetails: NCI tumour cell line growth inhibition, 48 h
property: TGI

Below are worked cases with known answers.
CC(=O)CCc1ccc(OC2OC(COC(=O)c3cc(O)c(O)c(O)c3)C(O)C(O)C2OC(=O)/C=C/c2ccccc2)cc1 (stereo unspecified)    > 100 µM
COc1cc(-c2cc(=O)c3c(OC)c(OC)c(OC)cc3o2)c(OC)c(OC)c1OC    > 75 µM
O=c1cc(-c2ccc(O)cc2)n(C2CC2)c2ccccc12    19.8 µM

Ask: For CS(=O)(=O)OC1CN2CCC1CC2 (stereo unspecified) , write its TGI.
Result: > 100 µM

Ask: Read off the recorded TGI for COC(=O)C1=C(C(=O)OC)C(Cc2ccccc2)(OO)OC1=O (stereo unspecified)
Result: 42.4 µM

Ask: Hello, please tell me recorded TGI for this one: CSc1nc(NC2OCC(OC(C)=O)C(OC(C)=O)C2OC(C)=O)c(N=C(C)C(C)=O)c(=O)[nH]1 (stereo unspecified)
Result: > 100 µM

Ask: Supply measured TGI of CCCCCCc1cc2cc(-c3nc4ccccc4[nH]3)c(=Nc3ccccc3C)oc2cc1O in your reply.
Result: 5.12 µM

Ask: Please indicate TGI recorded for N=C(N)c1ccc(OCCOCCOc2ccc(C(=N)N)cc2)cc1
Result: > 100 µM

Ask: Tell us which TGI value is on record for CC(C)(C)OC(=O)CC(NC(=O)OC(C)(C)C)C(=O)N[C@@H]1CCCC[C@H]1C(=O)OCc1ccccc1 (stereo partly specified)
Result: > 100 µM

Ask: Answer with the recorded TGI of CCCOC(=O)C1CCC(=O)N1C(=O)C(C)Cl (stereo unspecified) only.
Result: > 100 µM

Ask: Look up TGI of C/C=C/C/C=C/CCC(=O)[C@H]1O[C@H]1C(N)=O and report it.
Result: 26.3 µM

Ask: Recall and state the measured TGI for Cc1nc(-c2ccccc2)c(Cc2ccccc2O)c(=O)[nH]1 .
Result: > 100 µM

Ask: Give TGI for the following compound: CO/C=C(/C(=O)OC)c1ccccc1[C@@H]1CC1c1cccc(F)c1 (stereo partly specified)
Result: > 100 µM

Ask: Please indicate TGI recorded for O=c1c2c3c(sc2n2c(-c4cc(-c5ccccc5)no4)nnc2n1Cc1ccccc1)CCCC3
Result: > 100 µM

Ask: Write down TGI measured for item c1ccc(C2CC(c3cccc(Nc4ccncc4)c3)=NN2c2ccccc2)cc1 (stereo unspecified)
Result: 2.95 µM

Ask: Name the recorded TGI of the item COc1ccc(N(CN2C(=O)CCC2C(=O)O)C(C)=O)cc1 (stereo unspecified) in your answer.
Result: > 100 µM

Ask: Please indicate TGI recorded for N#Cc1c2c(c(Nc3cccc(C(F)(F)F)c3)n3c1nc1ccccc13)CCC2
Result: > 100 µM

Ask: Item COc1ccc2c(c1)C(=O)N1CCOC1C2C(=O)O (stereo unspecified) : provide TGI
Result: > 100 µM

Ask: Read the entry COC(=O)[C@@H]1C=C[C@H](OC2OC(COC(C)=O)C(OC(C)=O)C(OC(C)=O)C2OC(C)=O)n2c(=O)c3ccccc3c(=O)n21 (stereo partly specified) and write its reported TGI.
Result: 23.7 µM

Ask: Supply recorded TGI for CN(c1cc2ncc(=O)[nH]c2cc1NC(N)=NCc1ccc(Cl)cc1)C1CCCCC1 here.
Result: 5.95 µM

Ask: Read the entry Cc1cc(Cl)cc2c(N=Nc3ccccc3[N+](=O)[O-])c(O)[nH]c12 and write its reported TGI.
Result: > 100 µM

* * *

Tested on: SNB-75 CNS
protocolDetails: NCI tumour cell line growth inhibition, 48 h
property: TGI (µM)
Lab book: enter the figure in µM, no units written.

Recorded results for 3 compounds are shown here.
CCCCCCCc1cc(OC(=O)c2c(C)cc(OC)cc2O)cc(O)c1C(=O)O    36.1
CC(=O)O[C@@]12CO[C@@H]1C[C@H](O)[C@@]1(C)C(=O)[C@H](O)C3=C(C)[C@@H](OC(=O)[C@H](O)[C@@H](NC(=O)OC(C)(C)C)c4ccccc4)C[C@@](O)([C@@H](OC(=O)c4ccccc4)[C@H]21)C3(C)C    0.0637
O=C(Nc1ccc(F)cc1)Nc1ccccc1CNc1nc(Nc2ccc(OCCN3CCCC3)cc2)ncc1Cl    1.35

--- query ---
Ask: Identify measured TGI corresponding to N/C(=C\C(=O)n1nc(-c2ccccc2)cc1N)c1ccccc1
Result: 52.1

* * *

Test system: SN12C renal
protocolDetails: NCI tumour cell line growth inhibition, 48 h
property: TGI

Past entries and their recorded results:
CC1(Cl)CC2OC3(Br)C=CC(C)(O)C2(CC1Br)C3(C)C (centres undefined)    > 100 µM
CC(=O)N1c2ccccc2C2=CC3C4C(=O)N(c5ccccc5)C(=O)C4C21C1C(=O)N(c2ccccc2)C(=O)C31 (centres undefined)    > 100 µM
CCC[CH2][Sn]([CH2]CCC)([O]C(=O)c1cc(F)ccc1F)[O][Sn]([CH2]CCC)([CH2]CCC)[O]C(=O)c1cc(F)ccc1F    1.27 µM
O=Cc1cc([N+](=O)[O-])no1    > 100 µM
CN(C)c1nc(N(C)C)nc(N(C)CN(C)c2ccc(Cl)cc2)n1    > 100 µM
O=C1NC(=O)C(CC(C(=O)C(=O)Nc2ccccc2Cl)C(=O)c2ccc3ccccc3c2)C(=O)N1 (centres undefined)    > 100 µM
O=C(Nc1nc(C23CC4CC(CC(C4)C2)C3)cs1)c1c(O)c2ccccc2[nH]c1=O    > 100 µM
[Cl][Sn]([Cl])([c]1ccccc1)[c]1ccccc1    28.2 µM

Ask: Tell me its TGI given Cn1ccnc1C(=O)/C=C/c1ccc(C(=O)Nc2ccc(S(F)(F)(F)(F)F)cc2)cc1 as the entry.
Result: > 14.3 µM

Ask: Identify TGI associated with the compound CCCCCCNC(=O)c1cc(CCc2cc(O)ccc2O)ccc1O
Result: 5.77 µM

Ask: Identify TGI associated with the compound O=S1(=O)C(c2ccccc2)C(N2CCCCC2)C1C1CC2c3ccccc3C1c1ccccc12 (centres undefined)
Result: > 100 µM

Ask: Hello, please tell me recorded TGI for this one: Cc1ccc2c(c1)c1nc3cc(C)c(C)cc3nc1n2CCN(C)C
Result: 8.77 µM

Ask: For the compound Nc1nc(NCCO)c(N=O)c(=O)[nH]1 , report TGI.
Result: > 100 µM

Ask: Determine its reported TGI: CC(C)Nc1ccc(Nc2ccccc2)cc1
Result: > 100 µM

Ask: Write down TGI measured for item CCCCOc1ccc(NC(=O)n2nc(N)c3ccccc32)cc1
Result: 85.9 µM
